Assay: Sensory evaluation of sweetening potency relative to sugar (4% sucrose aqueous solution)
Conditions: relative to sugar; sensory evaluation
Excerpt: […]
PROPERTY NAME: Sweetening potency (relative to sugar)

The following compounds have reported results that may help.
COMPOUND: COC(=O)[C@H](CC1CCCCC1)NC(=O)[C@H](CC(=O)O)NCCCc1ccc(OC)c(O)c1
Sweetening potency (relative to sugar): 25,000 times
--
COMPOUND: COC(=O)[C@](C)(Cc1ccccc1)NC(=O)[C@H](CC(=O)O)NCCCc1ccc(OC)c(O)c1
Sweetening potency (relative to sugar): 18,000 times
--
COMPOUND: COC(=O)C(NC(=O)C(CC(=O)O)NCCCc1ccc(O)c(OC)c1)c1ccccc1 (stereo not shown)
Sweetening potency (relative to sugar): 700 times
--
COMPOUND: CCCOC(=O)[C@@H](C)NC(=O)[C@H](CC(=O)O)NCCCc1ccc(O)c(OC)c1
Sweetening potency (relative to sugar): 600 times
--
COMPOUND: COC(=O)C(C)(Cc1ccccc1)NC(=O)C(CC(=O)O)NCCCc1ccc(OC)cc1O (stereo not shown)
Sweetening potency (relative to sugar): 15,000 times

For COC(=O)[C@H](CC1CCCCC1)NC(=O)[C@H](CC(=O)O)NCCCc1ccc(O)c(C)c1 the compound record lists Sweetening potency (relative to sugar) as 40,000 times

For COC(=O)[C@H](CC1CCCCC1)NC(=O)[C@H](CC(=O)O)NCCCc1ccc(O)c(OC)c1 the compound record lists Sweetening potency (relative to sugar) as 25,000 times

For CCCOC(=O)[C@@H](C)NC(=O)[C@H](CC(=O)O)NCCCc1ccc(OC)c(O)c1 the compound record lists Sweetening potency (relative to sugar) as 800 times

For COC(=O)[C@](C)(Cc1ccccc1)NC(=O)[C@H](CC(=O)O)NCCCc1ccc(O)c(OC)c1 the compound record lists Sweetening potency (relative to sugar) as 18,000 times

For Cc1ccc(CCCN[C@@H](CC(=O)O)C(=O)N[C@@H](CC2CCCCC2)C(=O)O)c(O)c1 the compound record lists Sweetening potency (relative to sugar) as 25,000 times

For COC(=O)C(CCc1ccccc1)NC(=O)[C@H](CC(=O)O)NCCCc1ccc(O)c(OC)c1 (mixture of isomers) the compound record lists Sweetening potency (relative to sugar) as 1,200 times

For COC(=O)C(CCc1ccccc1)NC(=O)[C@H](CC(=O)O)NCCCc1ccc(OC)c(O)c1 (mixture of isomers) the compound record lists Sweetening potency (relative to sugar) as 1,000 times

For COC(=O)C(NC(=O)C(CC(=O)O)NCCCc1ccc(OC)c(O)c1)c1ccccc1 (stereo not shown) the compound record lists Sweetening potency (relative to sugar) as 1,600 times

These measurements were taken from patent US6630191B1.
